- TARGET SYSTEM: hOGA (Homo sapiens)
- Construct: endogenous in cells; host or cells: HEK293 cells inducible for P301L mutant human Tau (isoform 2N4R)
- Sequence (O60502 1-916): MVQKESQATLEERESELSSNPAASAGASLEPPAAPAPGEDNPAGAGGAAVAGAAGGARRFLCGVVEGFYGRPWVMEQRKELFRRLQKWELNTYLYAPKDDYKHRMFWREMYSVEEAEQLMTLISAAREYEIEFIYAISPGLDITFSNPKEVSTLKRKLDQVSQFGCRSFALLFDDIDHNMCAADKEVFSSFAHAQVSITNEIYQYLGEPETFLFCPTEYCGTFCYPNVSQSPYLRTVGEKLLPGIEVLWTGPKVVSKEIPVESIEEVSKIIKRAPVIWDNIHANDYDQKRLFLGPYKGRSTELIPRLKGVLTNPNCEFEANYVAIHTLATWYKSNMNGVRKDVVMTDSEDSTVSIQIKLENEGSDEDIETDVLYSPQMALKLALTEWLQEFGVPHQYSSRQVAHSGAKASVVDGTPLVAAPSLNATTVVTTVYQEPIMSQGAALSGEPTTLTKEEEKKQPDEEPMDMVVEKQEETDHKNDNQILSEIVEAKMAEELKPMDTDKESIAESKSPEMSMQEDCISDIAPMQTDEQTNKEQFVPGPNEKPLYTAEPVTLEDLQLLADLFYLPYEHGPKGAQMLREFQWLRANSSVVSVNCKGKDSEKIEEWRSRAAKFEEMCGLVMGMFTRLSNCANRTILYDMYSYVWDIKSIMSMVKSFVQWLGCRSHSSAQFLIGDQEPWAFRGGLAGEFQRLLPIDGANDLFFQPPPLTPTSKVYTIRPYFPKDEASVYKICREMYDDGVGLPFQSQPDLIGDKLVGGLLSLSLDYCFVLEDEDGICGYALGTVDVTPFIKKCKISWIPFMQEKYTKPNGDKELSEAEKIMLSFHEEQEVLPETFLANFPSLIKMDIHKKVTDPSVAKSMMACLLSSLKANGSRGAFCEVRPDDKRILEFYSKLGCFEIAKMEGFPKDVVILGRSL
- MEASUREMENT DESCRIPTION: OGA cellular assay (ICC detection of O-GlcNAcylated proteins in HEK293 cells inducible for P301L mutant human Tau)
- Type: cell-based
- CONDITION SET: second table; averaged values over several runs, obtained after recalibration of the equipment
Catalogue of Cellular hOGA; pEC50 values

COMPOUND: Cc1cc(C(F)(F)F)cc(C)c1Nc1nccc2c1ncn2-c1ncc(F)cn1
QUANTITY MEASURED: Cellular hOGA; pEC50
READING: 6.14
//
COMPOUND: Cc1cc(C(F)(F)F)cc(C)c1Nc1nccc2c1ncn2C(C)C(=O)N(C)C (stereo not drawn)
QUANTITY MEASURED: Cellular hOGA; pEC50
READING: <6
//
COMPOUND: Cc1cc(C(F)(F)F)cc(C)c1Nc1nccc2c1ncn2C(C)(C)C(=O)N(C)C
QUANTITY MEASURED: Cellular hOGA; pEC50
READING: <6
//
COMPOUND: Cc1cc(C(F)(F)F)cc(C)c1Nc1nccc2c1ncn2CCC(=O)N(C)C
QUANTITY MEASURED: Cellular hOGA; pEC50
READING: <6
//
COMPOUND: COCCn1cnc2c(Nc3c(C)cc(C(F)(F)F)cc3C)nccc21
QUANTITY MEASURED: Cellular hOGA; pEC50
READING: <6

Let's switch to this compound now.
For this compound ( Cc1cc(C(F)(F)F)cc(C)c1Nc1nccc2c1ncn2C1CCCCO1 (stereo not drawn) ), measured Cellular hOGA; pEC50 is 6.42
